# tested-system: NUAK2 (h) (Homo sapiens, UniProt Q9H093)
# Construct: This assay was done radiometrically using full-length, recombinant enzyme
# Sequence (Q9H093 whole entry): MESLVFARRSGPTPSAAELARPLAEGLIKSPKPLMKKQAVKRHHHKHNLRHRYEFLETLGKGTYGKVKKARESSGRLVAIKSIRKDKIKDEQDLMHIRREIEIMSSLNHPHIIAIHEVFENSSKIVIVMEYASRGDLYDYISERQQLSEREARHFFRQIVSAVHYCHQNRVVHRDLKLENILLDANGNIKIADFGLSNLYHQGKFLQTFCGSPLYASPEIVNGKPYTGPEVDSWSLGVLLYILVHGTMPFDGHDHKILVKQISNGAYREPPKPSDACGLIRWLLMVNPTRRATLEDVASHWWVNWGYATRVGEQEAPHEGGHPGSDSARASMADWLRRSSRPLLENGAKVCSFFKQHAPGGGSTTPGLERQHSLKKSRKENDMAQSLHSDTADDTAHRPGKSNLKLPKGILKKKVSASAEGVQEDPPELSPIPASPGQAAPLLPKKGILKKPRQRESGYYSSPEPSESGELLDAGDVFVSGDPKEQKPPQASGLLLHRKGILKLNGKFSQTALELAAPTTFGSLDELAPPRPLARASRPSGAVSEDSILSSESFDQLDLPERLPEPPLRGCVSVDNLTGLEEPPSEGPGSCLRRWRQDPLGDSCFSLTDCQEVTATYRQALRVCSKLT
# assay-notes: NUAK2 enzymatic assay (radiometric, Eurofins)
# test-settings: radiometric, full-length recombinant enzyme
pIC50: −log10 of the molar value.
property-label: pIC50

molecule | tested-system | property-label | result
CN1CCN(C2CCN(c3ccc(Nc4ncc(C(F)(F)F)c(Nc5ccsc5C(N)=O)n4)c(OC(F)F)c3)CC2)CC1 | NUAK2 (h) (Homo sapiens, UniProt Q9H093) | pIC50 | 8.00 to 10.00
CN1CCC(N(C)c2ccc(Nc3ncc(Cl)c(Nc4ccsc4C(N)=O)n3)c(OC(F)F)c2)CC1 | NUAK2 (h) (Homo sapiens, UniProt Q9H093) | pIC50 | 7.00 to 7.96
C[C@H]1CN(C)CCN1C1CCN(c2ccc(Nc3ncc(Cl)c(Nc4ccsc4C(N)=O)n3)c(OC(F)F)c2)CC1 | NUAK2 (h) (Homo sapiens, UniProt Q9H093) | pIC50 | 7.00 to 7.96
COc1cnc(Nc2ccc(N3CCN(C)CC3)cc2OC(F)F)nc1Nc1ccsc1C(N)=O | NUAK2 (h) (Homo sapiens, UniProt Q9H093) | pIC50 | 7.00 to 7.96
NC(=O)c1sccc1Nc1nc(Nc2ccc(N3CCN4CCOC[C@H]4C3)cc2OC(F)F)ncc1Cl | NUAK2 (h) (Homo sapiens, UniProt Q9H093) | pIC50 | 7.00 to 7.96
CN1CCC2(CC1)CCN(c1ccc(Nc3ncc(Cl)c(Nc4ccsc4C(N)=O)n3)c(OC(F)F)c1)C2 | NUAK2 (h) (Homo sapiens, UniProt Q9H093) | pIC50 | 7.00 to 7.96
CN1CCN(c2ccc(Nc3ncc(Cl)c(Nc4ccsc4C(N)=O)n3)c(Cl)c2F)CC1 [Compound C-4, reference compound] | NUAK2 (h) (Homo sapiens, UniProt Q9H093) | pIC50 | 8.00 to 10.00
CN1CCN(c2ccc(Nc3ncc(Cl)c(N[C@@H]4CCC[C@@H]4C(N)=O)n3)c(C(F)(F)F)c2)CC1 | NUAK2 (h) (Homo sapiens, UniProt Q9H093) | pIC50 | 7.00 to 7.96
NC(=O)c1sccc1Nc1nc(Nc2ccc(N3CCC(N4CCCCC4)CC3)cc2OC(F)F)ncc1C(F)(F)F | NUAK2 (h) (Homo sapiens, UniProt Q9H093) | pIC50 | 8.00 to 10.00
CC(C)(C)N1CCN(c2ccc(Nc3ncc(Cl)c(Nc4ccsc4C(N)=O)n3)c(OC(F)F)c2)CC1 | NUAK2 (h) (Homo sapiens, UniProt Q9H093) | pIC50 | 8.00 to 10.00
CC(C)(C)N1CCN(C2CCN(c3ccc(Nc4ncc(C(F)(F)F)c(Nc5ccsc5C(N)=O)n4)c(OC(F)F)c3)CC2)CC1 | NUAK2 (h) (Homo sapiens, UniProt Q9H093) | pIC50 | 7.00 to 7.96
CCN1CCN(C2CCN(c3ccc(Nc4ncc(Cl)c(Nc5ccsc5C(N)=O)n4)c(OC(F)F)c3)CC2)CC1 | NUAK2 (h) (Homo sapiens, UniProt Q9H093) | pIC50 | 7.00 to 7.96
CN1CCN(c2ccc(Nc3ncc(C(F)(F)F)c(Nc4ccsc4C(N)=O)n3)c(OC(F)F)c2)CC1 | NUAK2 (h) (Homo sapiens, UniProt Q9H093) | pIC50 | 8.00 to 10.00
CN1CCN(C2CCN(c3ccc(Nc4ncc(Cl)c(N[C@@H]5CCC[C@@H]5C(N)=O)n4)c(OC(F)F)c3)CC2)CC1 | NUAK2 (h) (Homo sapiens, UniProt Q9H093) | pIC50 | 7.00 to 7.96
